Data provenance is BigSolDB 2.1.

ASSAY_CONDITIONS: in methanol, 288.15 K
OBSERVABLE: solubility (mole fraction)
Numbers only.

Q: Record request: solubility (mole fraction) value, item `O=C(O)CCCCCCCCCCCC(=O)O`
A: 0.00315

----------
ASSAY_CONDITIONS: in ethanol, 288.15 K
OBSERVABLE: solubility (mole fraction)
One number for each entry.

Q: Record request: solubility (mole fraction) value, item `O=C(O)CCCCCCCCCCCC(=O)O`
A: 0.00286

----------
ASSAY_CONDITIONS: in methanol, 323.15 K
OBSERVABLE: solubility (mole fraction)
Numbers only.

Q: Record request: solubility (mole fraction) value, item `O=C(O)CCCCCCCCCCCC(=O)O`
A: 0.015

----------
ASSAY_CONDITIONS: in acetone, 293.15 K
OBSERVABLE: solubility (mole fraction)

Q: Record request: solubility (mole fraction) value, item `O=C(O)CCCCCCCCCCCC(=O)O`
A: 0.00302

----------
ASSAY_CONDITIONS: in methanol, 313.15 K
OBSERVABLE: solubility (mole fraction)
Answers are plain numbers.

Q: Record request: solubility (mole fraction) value, item `O=C(O)CCCCCCCCCCCC(=O)O`
A: 0.0106

----------
ASSAY_CONDITIONS: in acetic acid, 293.15 K
OBSERVABLE: solubility (mole fraction)

Q: Record request: solubility (mole fraction) value, item `O=C(O)CCCCCCCCCCCC(=O)O`
A: 0.00309

----------
ASSAY_CONDITIONS: in ethanol, 293.15 K
OBSERVABLE: solubility (mole fraction)
Numbers only.

Q: Record request: solubility (mole fraction) value, item `O=C(O)CCCCCCCCCCCC(=O)O`
A: 0.00388

----------
ASSAY_CONDITIONS: in methanol, 308.15 K
OBSERVABLE: solubility (mole fraction)
Numbers only.

Q: Record request: solubility (mole fraction) value, item `O=C(O)CCCCCCCCCCCC(=O)O`
A: 0.00845

----------
ASSAY_CONDITIONS: in ethyl acetate, 288.15 K
OBSERVABLE: solubility (mole fraction)
Give bare numbers.

Q: Record request: solubility (mole fraction) value, item `O=C(O)CCCCCCCCCCCC(=O)O`
A: 0.00083

----------
ASSAY_CONDITIONS: in acetone, 283.15 K
OBSERVABLE: solubility (mole fraction)
One number for each entry.

Q: Record request: solubility (mole fraction) value, item `O=C(O)CCCCCCCCCCCC(=O)O`
A: 0.00192

----------
ASSAY_CONDITIONS: in methanol, 298.15 K
OBSERVABLE: solubility (mole fraction)
Give bare numbers.

Q: Record request: solubility (mole fraction) value, item `O=C(O)CCCCCCCCCCCC(=O)O`
A: 0.00449

----------
ASSAY_CONDITIONS: in ethyl acetate, 318.15 K
OBSERVABLE: solubility (mole fraction)
One number for each entry.

Q: Record request: solubility (mole fraction) value, item `O=C(O)CCCCCCCCCCCC(=O)O`
A: 0.00722

----------
ASSAY_CONDITIONS: in acetone, 298.15 K
OBSERVABLE: solubility (mole fraction)
Numbers only.

Q: Record request: solubility (mole fraction) value, item `O=C(O)CCCCCCCCCCCC(=O)O`
A: 0.00409
